# STUDY_SYSTEM: BRD4 (Homo sapiens)
# EXPERIMENT_SUMMARY: Time Resolved Fluorescence Resonance Energy Transfer (TR-FRET) binding assay, BRD4
# CONDITION_DETAILS: one of the FRET assays described; read-out: FRET BRD4 IC50
The following compounds are listed with their measured IC50 values.
QUANTITY_NAME: IC50

compound="Cc1noc(C)c1-c1cnc2c3ccc(C(C)(C)O)cc3n(C(c3ccc(F)cc3F)C3CCOCC3)c2c1 (single isomer, unassigned) [Example 126]" study_system="BRD4 (Homo sapiens)" quantity_name=IC50 test_result="< 25 nM"
compound="Cc1nnn(C)c1-c1cnc2c3ccc(C(C)(C)O)cc3n(C(c3cccc(Cl)c3)C3CCOCC3)c2c1 (single isomer, unassigned) [Example 401]" study_system="BRD4 (Homo sapiens)" quantity_name=IC50 test_result="< 5 nM"
compound=Cc1noc(C)c1-c1cnc2c3ccc(S(C)(=O)=O)cc3n([C@H](c3ccc(F)cc3)C3CCOCC3)c2c1 study_system="BRD4 (Homo sapiens)" quantity_name=IC50 test_result="< 5 nM"

###

Measured pIC50 accompanies every entry in the list below.
# STUDY_SYSTEM: BRD4 (Homo sapiens, UniProt O60885)
# EXPERIMENT_SUMMARY: Time Resolved Fluorescence Resonance Energy Transfer (TR-FRET) binding assay, BRD4
# CONDITION_DETAILS: one of the FRET assays described; read-out: FRET BRD4 IC50
pIC50: −log10 of the molar value.
QUANTITY_NAME: pIC50

compound=Cn1nnc(CO)c1-c1cnc2c3ccc(C(C)(C)O)cc3n([C@H](c3ccccc3)C3CCOCC3)c2c1 test_result="> 8.30"
compound=[2H]C([2H])([2H])c1nnn(C)c1-c1cnc2c3c(OC)ccc(S(C)(=O)=O)c3n([C@H](c3ccc(F)cc3)C3CCOCC3)c2c1 test_result="> 8.30"
compound="Cc1nnn(C)c1-c1cnc2c3ccc(C(C)(C)O)cc3n(C(c3ncccn3)C3CCOCC3)c2c1 (single isomer, unassigned)" test_result="> 8.30"
compound=CCC(CC)n1c2cc(C(C)(C)O)ccc2c2ncc(-c3c(C)noc3C)cc21 test_result="> 7.60"
compound="Cc1nnn(C)c1-c1cnc2c3ccc(C(C)(C)N)cc3n(C(c3ccccc3)C3CCOCC3)c2c1 (single isomer, unassigned) [Example 165]" test_result="> 8.30"
compound="Cc1noc(C)c1-c1cnc2c3ccc(C(C)(C)O)cc3n(C(c3ccccc3)C3(F)CCC3)c2c1 (single isomer, unassigned) [Example 32]" test_result="> 8.30"

###

Entries and their IC50
# STUDY_SYSTEM: BRD4 (Homo sapiens, UniProt O60885)
# EXPERIMENT_SUMMARY: Time Resolved Fluorescence Resonance Energy Transfer (TR-FRET) binding assay, BRD4
# CONDITION_DETAILS: one of the FRET assays described; read-out: FRET BRD4 IC50
QUANTITY_NAME: IC50

compound="Cc1cccnc1C(C1CCOCC1)n1c2cc(C(C)(C)O)ccc2c2ncc(-c3c(C)nnn3C)cc21 (single isomer, unassigned) [Example 302]" quantity_name=IC50 test_result="< 5 nM"
compound=[2H]C([2H])([2H])c1nnn(C)c1-c1cnc2c3c(OC)cc(C(C)(C)O)cc3n([C@H](c3ccccc3)C3CCOCC3)c2c1 quantity_name=IC50 test_result="< 5 nM"
compound="Cc1noc(C)c1-c1cnc2c3ccc(C(C)(C)O)cc3n(C(c3ccccc3)C3(F)CCC3)c2c1 (single isomer, unassigned) [Example 33]" quantity_name=IC50 test_result="< 5 nM"
compound="COc1cc(F)c(C(C2CCOCC2)n2c3cc(C(C)(C)O)ccc3c3ncc(-c4c(C)nnn4C)cc32)cc1F (single isomer, unassigned) [Example 123]" quantity_name=IC50 test_result="< 5 nM"
compound=Cc1nnn(C)c1-c1cnc2c3ccc(CS(C)(=O)=O)cc3n([C@H](c3ncccc3Cl)C3CCOCC3)c2c1 quantity_name=IC50 test_result="< 5 nM"
compound=Cc1nnn(C)c1-c1cnc2c3ccc(C4(O)CC4)cc3n([C@H](c3ccccc3)C3CCOCC3)c2c1 quantity_name=IC50 test_result="< 5 nM"
compound=Cc1nnn(C)c1-c1cnc2c3ccc(C(C)(C)O)cc3n(Cc3ccccc3)c2c1 quantity_name=IC50 test_result="< 5 nM"
compound="Cc1nnc(C)n1-c1cnc2c3ccc(C(C)(C)O)cc3n(C(c3ccccc3)C3CCOCC3)c2c1 (stereo in doubt)" quantity_name=IC50 test_result="< 5 nM"
compound="[2H]C([2H])([2H])c1nnn(C)c1-c1cnc2c3ccc(C(C)(O)C4CC4)c(F)c3n([C@H](c3ccccc3F)C3CCOCC3)c2c1 (single isomer, unassigned) [Example 438]" quantity_name=IC50 test_result="< 5 nM"
compound="COc1nnn(C)c1-c1cnc2c3ccc(C(C)(O)C4CC4)c(F)c3n([C@H](c3ccccc3)C3CCOCC3)c2c1 (stereo partly shown)" quantity_name=IC50 test_result="< 5 nM"
compound=Cc1noc(C)c1-c1cnc2c3ccc(C(C)(C)O)cc3n(Cc3ccc(F)cc3)c2c1 quantity_name=IC50 test_result="< 25 nM"
compound=[2H]C([2H])([2H])c1nnn(C)c1-c1cnc2c3c(S(C)(=O)=O)cc(F)c(OC)c3n([C@H](c3ccccc3)C3CCOCC3)c2c1 quantity_name=IC50 test_result="< 5 nM"
compound=[2H]C([2H])([2H])c1nnn(C)c1-c1cnc2c3ccc(S(C)(=O)=O)cc3n([C@H](c3ccccc3)C3CCOCC3)c2c1 quantity_name=IC50 test_result="< 5 nM"
compound="[2H]C([2H])([2H])c1nnn(C)c1-c1cnc2c3ccc(C(C)(C)O)cc3n(C(c3ncccc3Cl)C3CCOCC3)c2c1 (single isomer, unassigned) [Example 322]" quantity_name=IC50 test_result="< 5 nM"
compound=Cc1nnn(C)c1-c1cnc2c3cc(Cl)c(C(C)(C)O)cc3n([C@H](c3ccccc3)C3CCOCC3)c2c1 quantity_name=IC50 test_result="< 5 nM"
compound="[2H]C([2H])([2H])c1nnn(C)c1-c1cnc2c3ccc(C(C)(C)O)cc3n(C(c3ncccc3Cl)C3CCOCC3)c2c1 (single isomer, unassigned) [Example 321]" quantity_name=IC50 test_result="< 5 nM"
compound="COc1ccc(C(C2CCOCC2)n2c3cc(C(C)(C)O)ccc3c3ncc(-c4c(C)nnn4C)cc32)c(F)c1F (single isomer, unassigned) [Example 121]" quantity_name=IC50 test_result="< 25 nM"
compound="Cc1nnn(C)c1-c1cnc2c3c(F)cc(C(C)(C)O)cc3n(C(c3c(F)cc(F)cc3F)C3CCOCC3)c2c1 (single isomer, unassigned) [Example 105]" quantity_name=IC50 test_result="< 5 nM"
compound=Cc1noc(C)c1-c1cnc2c3ccc(C(F)F)cc3n(Cc3ccccc3)c2c1 quantity_name=IC50 test_result="< 1500 nM"
compound="[2H]C([2H])([2H])c1nnn(C)c1-c1cnc2c3c(OCC(C)(F)F)ccc(S(C)(=O)=O)c3n(C(c3ncccc3F)C3CCOCC3)c2c1 (stereo not shown) [Example 248]" quantity_name=IC50 test_result="< 1500 nM"
compound="[2H]C([2H])([2H])c1nnn(C)c1-c1cnc2c3ccc(C(C)(C)O)cc3n(C(c3ccncc3F)C3CCOCC3)c2c1 (single isomer, unassigned) [Example 311]" quantity_name=IC50 test_result="< 5 nM"
compound="Cc1noc(C)c1-c1cnc2c3ccc(C(C)(C)O)cc3n(C(c3c(F)cccc3F)C3CCOCC3)c2c1 (single isomer, unassigned) [Example 144]" quantity_name=IC50 test_result="< 5 nM"
compound="Cc1cccc(C(C2CCOCC2)n2c3cc(C(C)(C)O)ccc3c3ncc(-c4c(C)nnn4C)cc32)n1 (single isomer, unassigned)" quantity_name=IC50 test_result="< 5 nM"
compound="Cc1cc(C(C2CCOCC2)n2c3cc(C(C)(C)O)ccc3c3ncc(-c4c(C)nnn4C)cc32)no1 (single isomer, unassigned) [Example 286]" quantity_name=IC50 test_result="< 5 nM"
compound=Cc1nnn(C)c1-c1cnc2c3ccc(C(O)(C4CC4)C4CC4)cc3n([C@H](c3ccccc3)C3CCOCC3)c2c1 quantity_name=IC50 test_result="< 5 nM"

###

# STUDY_SYSTEM: BRD4 (Homo sapiens, UniProt O60885)
# EXPERIMENT_SUMMARY: Time Resolved Fluorescence Resonance Energy Transfer (TR-FRET) binding assay, BRD4
# CONDITION_DETAILS: one of the FRET assays described; read-out: FRET BRD4 IC50
QUANTITY_NAME: IC50

compound="Cc1nnn(C)c1-c1cnc2c3ccc(C(C)(O)C4CC4)c(F)c3n([C@H](c3ccccc3)C3CCOCC3)c2c1 (stereo partly drawn) [Example 415]" study_system="BRD4 (Homo sapiens, UniProt O60885)" test_result="< 5 nM"
compound="Cc1nnn(C)c1-c1cnc2c3ccc(C(C)(C)O)c(F)c3n(C(c3ccccc3)C3CCOCC3)c2c1 (single isomer, unassigned) [Example 71]" study_system="BRD4 (Homo sapiens, UniProt O60885)" test_result="< 5 nM"
compound="Cc1noc(C)c1-c1cnc2c3ccc(C(C)(C)O)cc3n(C(CCC(F)(F)F)c3cocn3)c2c1 (single isomer, unassigned) [Example 34]" study_system="BRD4 (Homo sapiens, UniProt O60885)" test_result="< 5 nM"
compound=[2H]C([2H])([2H])c1nnn(C)c1-c1cnc2c3ccc(C(C)(C)O)c(F)c3n([C@H](c3ccccc3)C3CCOCC3)c2c1 study_system="BRD4 (Homo sapiens, UniProt O60885)" test_result="< 5 nM"
compound="Cc1noc(C)c1-c1cnc2c3ccc(C(C)(C)O)cc3n(C(c3ccccc3)C3CCC(F)(F)CC3)c2c1 (single isomer, unassigned) [Example 27]" study_system="BRD4 (Homo sapiens, UniProt O60885)" test_result="< 5 nM"
compound="Cc1oncc1-c1cnc2c3ccc(C(C)(C)O)cc3n(C(c3ccc(F)cc3)C3CCOCC3)c2c1 (single isomer, unassigned) [Example 40]" study_system="BRD4 (Homo sapiens, UniProt O60885)" test_result="< 25 nM"
